The origin of these recorded values is patent EP1022029A1.

ASSAY SYSTEM: α7 receptor (Rattus norvegicus)
Construct: expressed in transfected cells; host or cells: Xenopus oocytes injected with in vitro transcribed mRNA
Sequence (Q05941 23-502): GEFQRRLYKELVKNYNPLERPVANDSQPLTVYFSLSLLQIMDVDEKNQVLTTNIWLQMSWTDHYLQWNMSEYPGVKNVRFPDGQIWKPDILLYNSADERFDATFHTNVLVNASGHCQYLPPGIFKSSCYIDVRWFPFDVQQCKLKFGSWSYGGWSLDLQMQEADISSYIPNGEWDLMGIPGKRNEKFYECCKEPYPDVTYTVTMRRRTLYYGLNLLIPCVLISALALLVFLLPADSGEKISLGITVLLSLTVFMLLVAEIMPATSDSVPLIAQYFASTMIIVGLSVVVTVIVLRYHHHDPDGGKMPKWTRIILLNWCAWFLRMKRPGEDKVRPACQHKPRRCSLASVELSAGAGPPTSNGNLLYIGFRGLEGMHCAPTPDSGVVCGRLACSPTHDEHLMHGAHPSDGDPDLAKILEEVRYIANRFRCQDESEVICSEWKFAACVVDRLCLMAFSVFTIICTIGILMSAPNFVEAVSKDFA
ASSAY COMMENT: ACh-evoked currents in α7 receptors expressed in Xenopus oocytes (two-electrode voltage clamp)
Format: cell-based
CONDITION DESCRIPTION: treatment as labelled; nefiracetam 1 µM, GF109203X 100 nM, peptides co-expressed; Mean ± SD, n = 6 to 8
ENDPOINT NAME: % of the original amplitude (Ach-evoked current) (%)
# value in %; strip the unit string

Would you please look over these solved cases?
>  <COMPOUND>
Nc1nc2c(ncn2[C@@H]2O[C@H](COP(=O)(O)OP(O)(O)=S)[C@@H](O)[C@H]2O)c(=O)[nH]1 [GDPβS, reference compound]

>  <ASSAY SYSTEM>
α7 receptor (Rattus norvegicus)

>  <READOUT VALUE>
100

$$$$
>  <COMPOUND>
CN(C)CCCn1cc(C2=C(c3c[nH]c4ccccc34)C(=O)NC2=O)c2ccccc21 [GF109203X, reference compound]

>  <ASSAY SYSTEM>
α7 receptor (Rattus norvegicus)

>  <READOUT VALUE>
102.2

$$$$
>  <COMPOUND>
CN[C@@H]1C[C@H]2O[C@@](C)([C@@H]1OC)n1c3ccccc3c3c4c(c5c6ccccc6n2c5c31)C(=O)NC4 [Staurosporine, reference compound]

>  <ASSAY SYSTEM>
α7 receptor (Rattus norvegicus)

>  <READOUT VALUE>
101

$$$$

Next compound, please.
Give a short answer stating reported % of the original amplitude (Ach-evoked current) for O=S(=O)(NCCNCC=Cc1ccc(Br)cc1)c1cccc2cnccc12 [H89, reference compound] .
99.4

====

ASSAY SYSTEM: α4β2 receptor (Rattus norvegicus, UniProt P09483+P12390)
Construct: expressed in transfected cells; host or cells: Xenopus oocytes injected with in vitro transcribed mRNA
Sequence (P09483 31-630): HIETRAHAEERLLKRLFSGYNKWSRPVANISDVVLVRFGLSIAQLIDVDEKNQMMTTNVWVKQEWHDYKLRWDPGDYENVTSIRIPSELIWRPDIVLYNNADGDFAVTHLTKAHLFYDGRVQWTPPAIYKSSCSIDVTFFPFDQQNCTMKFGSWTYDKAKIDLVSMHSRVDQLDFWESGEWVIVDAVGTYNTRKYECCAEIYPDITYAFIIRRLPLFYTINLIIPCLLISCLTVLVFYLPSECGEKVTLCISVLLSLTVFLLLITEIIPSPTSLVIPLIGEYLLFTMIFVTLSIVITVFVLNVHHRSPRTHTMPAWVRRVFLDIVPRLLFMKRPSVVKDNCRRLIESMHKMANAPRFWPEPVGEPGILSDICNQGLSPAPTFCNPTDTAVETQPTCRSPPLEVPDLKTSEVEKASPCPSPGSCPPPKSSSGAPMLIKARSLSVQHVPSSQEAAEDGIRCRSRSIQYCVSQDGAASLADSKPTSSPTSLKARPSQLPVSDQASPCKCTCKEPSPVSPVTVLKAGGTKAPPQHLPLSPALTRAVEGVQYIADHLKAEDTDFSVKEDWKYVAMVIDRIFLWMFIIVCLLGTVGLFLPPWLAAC
Sequence (P12390 25-500): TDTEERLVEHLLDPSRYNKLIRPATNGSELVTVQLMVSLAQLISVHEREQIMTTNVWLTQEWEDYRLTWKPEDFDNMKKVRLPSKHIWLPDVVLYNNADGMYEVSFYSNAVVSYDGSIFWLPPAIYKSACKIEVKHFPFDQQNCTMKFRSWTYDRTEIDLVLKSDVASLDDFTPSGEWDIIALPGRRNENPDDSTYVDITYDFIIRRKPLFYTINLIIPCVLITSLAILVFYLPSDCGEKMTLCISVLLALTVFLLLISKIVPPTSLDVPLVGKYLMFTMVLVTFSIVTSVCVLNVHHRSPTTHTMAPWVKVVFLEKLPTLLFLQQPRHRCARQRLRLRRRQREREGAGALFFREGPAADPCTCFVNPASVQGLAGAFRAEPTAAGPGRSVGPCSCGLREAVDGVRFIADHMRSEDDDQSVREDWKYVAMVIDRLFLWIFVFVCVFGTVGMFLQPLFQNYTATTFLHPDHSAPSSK
ASSAY COMMENT: ACh-evoked currents in α4β2 receptors expressed in Xenopus oocytes (two-electrode voltage clamp)
Type: cell-based
CONDITION DESCRIPTION: treatment as labelled; nefiracetam 1 µM, GF109203X 100 nM, peptides co-expressed; Mean ± SD, n = 6 to 8
ENDPOINT NAME: % of the original amplitude (Ach-evoked current) (%)
Just the number in %, nothing appended.

>  <COMPOUND>
O=S(=O)(NCCNCC=Cc1ccc(Br)cc1)c1cccc2cnccc12 [H89, reference compound]

>  <READOUT VALUE>
98.8

$$$$
>  <COMPOUND>
CN[C@@H]1C[C@H]2O[C@@](C)([C@@H]1OC)n1c3ccccc3c3c4c(c5c6ccccc6n2c5c31)C(=O)NC4 [Staurosporine, reference compound]

>  <READOUT VALUE>
90

$$$$
>  <COMPOUND>
Cc1cccc(C)c1NC(=O)CN1CCCC1=O

>  <READOUT VALUE>
160

$$$$
>  <COMPOUND>
Nc1nc2c(ncn2[C@@H]2O[C@H](COP(=O)(O)OP(O)(O)=S)[C@@H](O)[C@H]2O)c(=O)[nH]1 [GDPβS, reference compound]

>  <READOUT VALUE>
96

$$$$

Alright, here's another compound for you.
Check the records and state % of the original amplitude (Ach-evoked current) for CN(C)CCCn1cc(C2=C(c3c[nH]c4ccccc34)C(=O)NC2=O)c2ccccc21 [GF109203X, reference compound]
79.3
